Exercise: state measured relative viability for each of the compounds provided.
# System: NCI-H1755
# procedure-details: relative viability (nuclei count vs DMSO), 5 days (fraction); higher = more cells survive
# test-parameters: first compound 0.1581 µM

-- ask Fill blank: measured relative viability of the compound Nc1ccn([C@@H]2O[C@H](CO)[C@@H](O)[C@@H]2O)c(=O)n1 [Cytarabine] + O=C(c1cc(Cc2n[nH]c(=O)c3ccccc23)ccc1F)N1CCN(C(=O)C2CC2)CC1 [Olaparib] (partner 8 µM) is ____.
-- reply 0.398

-- ask Fill blank: measured relative viability of the compound COc1cc2nccc(Oc3ccc(NC(=O)Nc4cc(C)on4)c(Cl)c3)c2cc1OC [Tivozanib] + CC(=O)c1c(C)c2cnc(Nc3ccc(N4CCNCC4)cn3)nc2n(C2CCCC2)c1=O [Palbociclib] (partner 0.5 µM) is ____.
-- reply 0.421

-- ask Fill blank: measured relative viability of the compound COc1cc2nccc(Oc3ccc(NC(=O)Nc4cc(C)on4)c(Cl)c3)c2cc1OC [Tivozanib] + CC(C)C[C@H](NC(=O)[C@H](Cc1ccccc1)NC(=O)c1cnccn1)B(O)O [Bortezomib] (partner 0.002 µM) is ____.
-- reply 0.577

-- ask Fill blank: measured relative viability of the compound COc1cc2nccc(Oc3ccc(NC(=O)Nc4cc(C)on4)c(Cl)c3)c2cc1OC [Tivozanib] + Nc1nc2[nH]cc(CCc3ccc(C(=O)N[C@@H](CCC(=O)O)C(=O)O)cc3)c2c(=O)[nH]1 [Pemetrexed] (partner 0.2 µM) is ____.
-- reply 0.468

-- ask Fill blank: measured relative viability of the compound Nc1ccn([C@@H]2O[C@H](CO)[C@@H](O)[C@@H]2O)c(=O)n1 [Cytarabine] + O=C(CCCCCCC(=O)Nc1ccccc1)NO [Vorinostat] (partner 1 µM) is ____.
-- reply 0.502

-- ask Fill blank: measured relative viability of the compound COc1cc2nccc(Oc3ccc(NC(=O)Nc4cc(C)on4)c(Cl)c3)c2cc1OC [Tivozanib] + C[C@]1(O)C[C@@H](c2nc(-c3ccc4ccc(-c5ccccc5)nc4c3)c3c(N)nccn32)C1 [Linsitinib] (partner 1 µM) is ____.
-- reply 1.02

-- ask Fill blank: measured relative viability of the compound COc1cc2nccc(Oc3ccc(NC(=O)Nc4cc(C)on4)c(Cl)c3)c2cc1OC [Tivozanib] + O=C(c1cc(Cc2n[nH]c(=O)c3ccccc23)ccc1F)N1CCN(C(=O)C2CC2)CC1 [Olaparib] (partner 8 µM) is ____.
-- reply 0.773

-- ask Fill blank: measured relative viability of the compound Nc1ccn([C@@H]2O[C@H](CO)[C@@H](O)[C@@H]2O)c(=O)n1 [Cytarabine] + Cc1nc(NC(=O)N2CCC[C@H]2C(N)=O)sc1-c1ccnc(C(C)(C)C(F)(F)F)c1 [Alpelisib] (partner 2 µM) is ____.
-- reply 0.244

-- ask Fill blank: measured relative viability of the compound COc1cc2nccc(Oc3ccc(NC(=O)Nc4cc(C)on4)c(Cl)c3)c2cc1OC [Tivozanib] + CS(=O)(=O)N1CCN(Cc2cc3nc(-c4cccc5[nH]ncc45)nc(N4CCOCC4)c3s2)CC1 [Pictilisib] (partner 1 µM) is ____.
-- reply 0.405

-- ask Fill blank: measured relative viability of the compound Nc1ccn([C@@H]2O[C@H](CO)[C@@H](O)[C@@H]2O)c(=O)n1 [Cytarabine] + C[C@@H](Oc1cc(-c2cnn(C3CCNCC3)c2)cnc1N)c1c(Cl)ccc(F)c1Cl [Crizotinib] (partner 1 µM) is ____.
-- reply 0.265

-- ask Fill blank: measured relative viability of the compound Nc1ccn([C@@H]2O[C@H](CO)[C@@H](O)[C@@H]2O)c(=O)n1 [Cytarabine] + C[C@]1(O)C[C@@H](c2nc(-c3ccc4ccc(-c5ccccc5)nc4c3)c3c(N)nccn32)C1 [Linsitinib] (partner 1 µM) is ____.
-- reply 0.31

Where these numbers come from: the supplement of paper PMC10307832
